Test system: A498
Assay: NCI tumour cell line growth inhibition, 48 h
Activity calls are given as the source filed them. No stated cut-off is given here; in the data, active = GI50 up to about 1.1 µM and inactive = higher.
The categories you may choose from are y (active), n (inactive)

COC12C(COC(=O)NCCO)C3=C(C(=O)C(C)=C(N)C3=O)N1CC1NC12 (stereo unspecified)
n
CC1COS(=O)N1c1ccccc1 (stereo unspecified)
n

Task: Hi team, can someone confirm the assay call for `O[C@H]1[C@H](O)[C@@H](O)[C@@]2(O)CC[C@@H]1N2` ?
Output: n

Task: Hi team, can someone confirm the assay call for O=C(CN1C(=O)c2ccccc2C1=O)OC1C=CCCC1 (stereo unspecified) ?
Output: n

Task: Hi team, can someone confirm the assay call for `CC1=CC(=O)c2ccc3c4ccccc4n(C)c3c2C1=O` ?
Output: n

Task: Hi team, can someone confirm the assay call for `COc1ccc2c(Cl)cc(NC(=S)Nc3ccccc3)nc2c1` ?
Output: n

Task: Hi team, can someone confirm the assay call for N#CC1=C(N)N(c2ccccc2)C(c2ccccc2)C1(C#N)C#N (stereo unspecified) ?
Output: n

Task: Hi team, can someone confirm the assay call for `CCOC(=O)c1c(NC(=O)c2ccccc2)sc2c1CCC2` ?
Output: n

Task: Hi team, can someone confirm the assay call for COc1ccc(C2c3cc4c(cc3OC(N3CCOCC3)C2C)OCO4)c(OC)c1 (stereo unspecified) ?
Output: n

Task: Hi team, can someone confirm the assay call for `Clc1c(Cl)c2c(Cl)c(Cl)c1C[PH](c1ccccc1)(c1ccccc1)CC[PH](c1ccccc1)(c1ccccc1)Cc1c(Cl)c(Cl)c(c(Cl)c1Cl)C[PH](c1ccccc1)(c1ccccc1)CC[PH](c1ccccc1)(c1ccccc1)C2` ?
Output: n

Task: Hi team, can someone confirm the assay call for `C/C(=N\NS(=O)(=O)c1ccccc1)c1ccc[n+]([O-])n1` ?
Output: n

Task: Hi team, can someone confirm the assay call for CC(OP(=O)(O)O)C(N)C(=O)O (stereo unspecified) ?
Output: n

Task: Hi team, can someone confirm the assay call for CC(=O)OC(C)C1C2=C(C(=O)CC1(C)O)C(=O)c1c(ccc(-c3ccc4c(c3O)C(=O)C3=C(C4=O)C(C(C)OC(C)=O)C(C)(O)CC3=O)c1O)C2=O (stereo unspecified) ?
Output: n

Task: Hi team, can someone confirm the assay call for `O=[N+]([O-])c1cc(/C=N/NS(=O)(=O)c2ccc(F)cc2)c(O)c([N+](=O)[O-])c1` ?
Output: n

Task: Hi team, can someone confirm the assay call for CCCNCC(O)CNc1ccc(NCC(O)CNCCC)c2c1C(=O)c1ccccc1C2=O (stereo unspecified) ?
Output: n

Task: Hi team, can someone confirm the assay call for C=C(C)CCC1CCCCC(CN(C)C)C1=O (stereo unspecified) ?
Output: n

Task: Hi team, can someone confirm the assay call for COc1c(OC(C)=O)c(OC(C)=O)cc2c1-c1ccc(OC)c(=O)cc1C(NC(C)=O)CC2 (stereo unspecified) ?
Output: y

----------
Test system: Malme-3M
Assay: NCI tumour cell line growth inhibition, 48 h
Activity calls are given as the source filed them. Cut-off read from the data, not from the text of the source: active = GI50 up to about 1.1 µM and inactive = higher.
The categories you may choose from are active, inactive

Some solved cases for reference:
CCCCC1=C(C(=O)N2CCOCC2)C2(OCCO2)C1=O
inactive
C[C@H]1[C@H]2[C@H](C[C@@]3(C)C4=CC[C@H]5C(C)(C)[C@@H](OC6OCC(O)C(O)C6O)CC[C@@]56C[C@@]46CC[C@]23C)O[C@@]2(O)[C@@H]1OC(C)(C)[C@H]2O (some centres not stated)
active
Cc1ccc2c(c1)-c1nc(N)c(C#N)c(-c3ccc(Cl)cc3)c1CCS2(=O)=O
inactive
CCn1c(=O)c2c3ccc(O)cc3oc2c2ccc(O)cc21
inactive

Task: Hi team, can someone confirm the assay call for OC(CC(O)(C(F)(F)F)C(F)(F)F)C(O)c1ccco1 (configuration not stated) ?
Output: inactive

Task: Hi team, can someone confirm the assay call for C[N+](C)(C)C1CC([N+](C)(C)C)C2c3ccccc3C21 (configuration not stated) ?
Output: inactive

Task: Hi team, can someone confirm the assay call for `Cc1nc2ccccc2c(=O)n1NC(=O)Cc1ccccc1` ?
Output: inactive

Task: Hi team, can someone confirm the assay call for `COC(=O)CCC1=NCC(C)(C)O1` ?
Output: inactive

Task: Hi team, can someone confirm the assay call for `Cc1c2ncccc2c(C)c2c1[nH]c1ccc(O)cc12` ?
Output: inactive

Task: Hi team, can someone confirm the assay call for `Cc1cc(N(CCCCl)CCCCl)ccc1/C=N/c1cccc(Cl)c1` ?
Output: inactive

----------
Test system: EKVX
Test: NCI tumour cell line growth inhibition, 48 h
Active and inactive are the calls of the source. No stated cut-off is given here; in the data, active = GI50 up to about 1.1 µM and inactive = higher.
ENDPOINT: GI50

Value sought for every listed compound: GI50.
1. Cc1nc2sccn2c1C(=O)NN
2. COc1cc(OC)c(/C=C\c2ccnc3ccccc23)c(OC)c1
3. COC(=O)CCC1=NCC(C)(C)O1
4. O=C1CC2CCN(C(=O)c3ccccc3)CC2CCN1.O=C1CCC2CC(C(=O)c3ccccc3)CCC2CN1 (stereo unspecified)
5. CCOC(=O)COc1cccc2occc(=O)c12
6. CCNC(=S)N/N=C/c1cc([N+](=O)[O-])ccc1O

Output:
1. > 100 µM (inactive)
2. 4.65 µM (inactive)
3. > 10 µM (inactive)
4. > 100 µM (inactive)
5. > 100 µM (inactive)
6. 30.4 µM (inactive)

----------
Tested on: COLO 205
Assay: NCI tumour cell line growth inhibition, 48 h
Active and inactive are the calls of the source. No stated cut-off is given here; in the data, active = GI50 up to about 1.1 µM and inactive = higher.
The categories you may choose from are active, inactive

COC1=NC(NC2OCC(O)C(O)C2O)=C(NC(C)=O)CN1C (centres undefined)
inactive
c1ccc(SC(Sc2ccccc2)=C2CCC2)cc1
inactive
C1=CC2(C=CC13O[C@H](C1CCCCC1)[C@@H](C1CCCCC1)O3)O[C@H](C1CCCCC1)[C@@H](C1CCCCC1)O2
inactive
CC(=O)O[C@@]12CO[C@@H]1C[C@@H](O)[C@@]1(C)C(=O)[C@H](O)C3=C(C)[C@@H](OC(=O)[C@H](O)[C@@H](NC(=O)c4ccccc4)c4ccccc4)C[C@@](O)([C@@H](OC(=O)c4ccccc4)C12)C3(C)C (some centres undefined)
active
Cn1c(=O)c2c(nc(N3CCOCC3)n2CCCNCC(O)c2ccc(O)c(O)c2)n(C)c1=O (centres undefined)
inactive
CCC12C=CCN(CCc3c([nH]c4ccccc34)/C=C\1)C2 (centres undefined)
inactive
CN(C)CCS/C(=N\c1ccccc1)n1cccc1
inactive
CN(C)CCCNc1c2c(nc3ccc(Cl)cc13)CCCC2
inactive
O=C(O)c1cccc(CC(Br)C(=O)O)c1 (centres undefined)
inactive
O=C(Nc1ccccc1)c1cc(S(=O)(=O)Nc2n[nH]c(=O)n2-c2ccccc2)c(S)cc1Cl
inactive

Task: Hi team, can someone confirm the assay call for `Cc1ccc(S(=O)(=O)N2CCN(S(=O)(=O)c3ccc(C)cc3)Cc3ccccc3C2)cc1` ?
Output: inactive

Task: Hi team, can someone confirm the assay call for `CN(C(=O)c1ccco1)C(=S)N1CCN(c2ccccc2)CC1` ?
Output: inactive

Task: Hi team, can someone confirm the assay call for `COC(CNC(=O)CNC(=O)c1ccc(C(F)(F)F)cc1)OC` ?
Output: inactive

Task: Hi team, can someone confirm the assay call for `COC(=O)Cn1cnc2c(Cl)nc(Nc3ccccc3)nc21` ?
Output: inactive

Task: Hi team, can someone confirm the assay call for `O[C@H]1[C@H](O)[C@@H](O)[C@@]2(O)CC[C@@H]1N2` ?
Output: inactive

----------
System: SK-MEL-2
Assay: NCI tumour cell line growth inhibition, 48 h
Calls of active or inactive are those of the source. No stated cut-off is given here; in the data, active = GI50 up to about 1.1 µM and inactive = higher.
ENDPOINT: GI50

Here is how some molecules turned out for GI50.
CC(C)=C=CC(C)(C)NS(=O)(=O)NC(C)(C)C=C=C(C)C
> 100 µM (inactive)
C=C1CC(COc2ccc3c(C)cc(=O)oc3c2)(c2ccccc2)OC1=O (stereo not given)
1.4 µM (inactive)
CCc1oc2ccccc2c1C(=O)c1cc(Br)c(O)c(Br)c1
19.8 µM (inactive)

Value sought for every listed molecule: GI50.
1. COP(=O)(OC)[C@@](O)(c1ccccc1)[C@@H](O)[C@H](O)c1ccccc1
2. CC1(CNCc2ccccc2)CC(CCc2ccccc2)N(C(=O)c2ccc([N+](=O)[O-])cc2)C1Cc1ccc(O)cc1 (stereo not given)
3. Nc1nc(Cl)cc(NCC2(CO)CC=CC2)n1

Output:
1. > 100 µM (inactive)
2. 13.6 µM (inactive)
3. > 100 µM (inactive)

----------
Test system: MOLT-4
Test: NCI tumour cell line growth inhibition, 48 h
The source made the active and inactive calls. No stated cut-off is given here; in the data, active = GI50 up to about 1.1 µM and inactive = higher.
The categories you may choose from are YES for active, NO for inactive

Some solved cases for reference:
COCCOCCOC1=CC(=O)c2c(O)ccc(O)c2C1=O
NO
CC(=O)OC(C)C1C2=C(C(=O)CC1(C)O)C(=O)c1c(ccc(-c3ccc4c(c3O)C(=O)C3=C(C4=O)C(C(C)OC(C)=O)C(C)(O)CC3=O)c1O)C2=O (centres undefined)
NO
CSc1c(C#N)c(O)n(-c2ccc(Cl)cc2)c(=O)c1C#N
NO
C=CCC1C(=O)CC2(C)CC(=O)C(CC=C)C12C (centres undefined)
NO
CC(=O)OC1C(C)OC(OC2C[C@](O)(C(C)=O)Cc3c(O)c4c(c(O)c32)C(=O)c2ccccc2C4=O)C(F)C1OC(C)=O (some centres undefined)
YES

Task: Hi team, can someone confirm the assay call for COc1ccc(C2COc3cc(O)c(O)cc3C2)cc1 (centres undefined) ?
Output: NO

Task: Hi team, can someone confirm the assay call for COc1cc2cc(C(=O)N3CC(CCl)c4c3cc(O)c3ccccc43)[nH]c2c(OC)c1OC (centres undefined) ?
Output: YES

Task: Hi team, can someone confirm the assay call for `CC(C)OC(=O)[C@@H]1OC(C)(C)O[C@H]1C(=O)OC(C)C` ?
Output: NO

Task: Hi team, can someone confirm the assay call for CCOC(=O)C(NCc1cccc(C(F)(F)F)c1)(NC(=O)c1ccccc1)C(F)(F)F (centres undefined) ?
Output: NO
